protocolText: chemical genetic growth profiling, strain panel (AID 1159580);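 note: tested at 20 µM; growth read once vehicle control cultures reached saturation at 30 °C; 1 = growth at the plate median or of vehicle wells; lower values mean less growth of the strain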
particulars: S. cerevisiae deletion strains, growth OD, locus YLR102C, strain apc9
Among all 5,500 compounds or so, about 2,000 (36%) were called active. Not shown: some 18% with an inconclusive outcome. Cut-off read from the data, not from the text of the source: active = normalized growth mostly below about 0.91 (no sharp cut-off); inconclusive = no clear call, values can overlap the other calls; inactive = mostly above about 0.92. The list shows a part of the results.
Outcome codes: 1.0 (active), 0.0 (inactive)

>  <compound>
N[C@H](Cc1cc(I)c(Oc2ccc(O)c(I)c2)c(I)c1)C(=O)O

>  <cat>
0.0

$$$$
>  <compound>
C=C[C@H]1CN2CC[C@H]1C[C@@H]2[C@H](O)c1ccnc2ccccc12

>  <cat>
0.0

$$$$
>  <compound>
CC(CN1c2ccccc2Sc2cccnc21)N(C)C (stereo not drawn)

>  <cat>
0.0

$$$$
>  <compound>
CC(C)CCCC(C)C1CCC2C3CC[C@H]4CCCC[C@]4(C)C3CC[C@]12C (stereo partly drawn)

>  <cat>
0.0

$$$$
>  <compound>
NC(N)=NCCC[C@@H](NC(=O)[C@@H](N)Cc1ccc(O)cc1)C(=O)O

>  <cat>
0.0

$$$$
>  <compound>
CN(C)N=Nc1nc[nH]c1C(N)=O

>  <cat>
0.0

$$$$
>  <compound>
COc1c2ccccc2nc2occc12

>  <cat>
0.0

$$$$
>  <compound>
COC(=O)CCCOc1ccc(Cl)cc1Cl

>  <cat>
0.0

$$$$
>  <compound>
CN1CC(CNC(=O)OCc2ccccc2)CC2c3cccc4c3c(cn4C)CC21 (stereo not drawn)

>  <cat>
0.0

$$$$
>  <compound>
O=C(O)CCCOc1ccc(Cl)cc1Cl

>  <cat>
0.0

$$$$
>  <compound>
CC(CN(C)C)CN1c2ccccc2Sc2ccccc21 (stereo not drawn)

>  <cat>
0.0

$$$$
>  <compound>
NC(N)=O

>  <cat>
0.0

$$$$
>  <compound>
COC(=O)CCC(C)[C@H]1CCC2C3C(C[C@H](O)[C@@]21C)[C@@]1(C)CC[C@@H](O)C[C@H]1C[C@H]3O (stereo partly drawn)

>  <cat>
0.0

$$$$
>  <compound>
NC(N)=NCCCC(NC(=O)C(N)Cc1ccc(O)cc1)C(=O)O (stereo not drawn)

>  <cat>
0.0

$$$$
>  <compound>
CC(CCC(=O)O)[C@H]1CCC2C3CC[C@@H]4C[C@H](O)CC[C@]4(C)C3CC[C@@]21C (stereo partly drawn)

>  <cat>
1.0

$$$$
>  <compound>
O=C(O)Cc1cc(I)c(Oc2cc(I)c(O)c(I)c2)c(I)c1

>  <cat>
0.0

$$$$
>  <compound>
COC(=O)CCC(C)C1CCC2C3CC[C@@H]4C[C@H](O)CC[C@]4(C)C3C[C@H](O)[C@]12C (stereo partly drawn)

>  <cat>
0.0

$$$$
>  <compound>
CC(CCC(=O)O)[C@H]1CCC2C3C(C[C@H](O)[C@@]21C)[C@@]1(C)CC[C@@H](O)C[C@H]1C[C@H]3O (stereo partly drawn)

>  <cat>
0.0

$$$$
>  <compound>
CCCCSP(=O)(SCCCC)SCCCC

>  <cat>
0.0

$$$$
>  <compound>
c1ccc2c(c1)CN1CCCC1=N2

>  <cat>
0.0

$$$$
>  <compound>
CC[C@H](CCC(C)[C@H]1CCC2C3CCC4C[C@@H](O)CC[C@]4(C)C3CC[C@@]21C)C(C)C (stereo partly drawn)

>  <cat>
0.0

$$$$
>  <compound>
COc1cc2c(cc1O)C(Cc1ccc(O)cc1)N(C)CC2 (stereo not drawn)

>  <cat>
0.0

$$$$
>  <compound>
N#C/C(=C\c1cccc(O)c1)C(=O)O

>  <cat>
0.0

$$$$

---

The entries below come with measured normalized growth values attached.
protocolText: chemical genetic growth profiling, strain panel (AID 1159580);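 note: tested at 20 µM; growth read once vehicle control cultures reached saturation at 30 °C; 1 = growth at the plate median or of vehicle wells; lower values mean less growth of the strain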
particulars: S. cerevisiae deletion strains, growth OD, locus YLR342W, strain FKS1, stronger effect = lower value
The whole screen tested about 5,500 compounds, of which about 2,000 (36%) were called active. Another 18% or so got no clear call; they are omitted. Some of the results follow.

>  <compound>
CNC(=O)Oc1ccc2c(c1)[C@]1(C)CCN(C)[C@@H]1N2C

>  <normalized growth>
1.02

$$$$
>  <compound>
COc1ccc(C(=O)N2CCCC2=O)cc1

>  <normalized growth>
0.99

$$$$
>  <compound>
C[C@]12C=CC(=O)C=C1CCC1C3C[C@@H](O)[C@](O)(C(=O)CO)[C@@]3(C)C[C@H](O)[C@@]12F (stereo not given in full)

>  <normalized growth>
0.982

$$$$
>  <compound>
CCCCCC1C(=O)CCC1CC(=O)O (stereo not given)

>  <normalized growth>
0.982

$$$$
>  <compound>
S=P(N1CC1)(N1CC1)N1CC1

>  <normalized growth>
1.01

$$$$
>  <compound>
CC1=C2[C@H]3OC(=O)[C@@H](C)[C@@H]3CC[C@@]2(C)C=CC1=O

>  <normalized growth>
0.974

$$$$
>  <compound>
CC1CCC2(OC1)OC1CC3C4CCC5C[C@@H](O)CCC5(C)C4=CCC3(C)C1[C@@H]2C (stereo not given in full)

>  <normalized growth>
1.05

$$$$
>  <compound>
C=C1C2CCC3(C)C(c4ccoc4)OC(=O)CC13OC1CC(OC(C)=O)C(C)(C)C(CC(=O)OC)C12C (stereo not given)

>  <normalized growth>
0.992

$$$$
>  <compound>
Cc1cc(C)cc(OCC2CNC(=O)O2)c1 (stereo not given)

>  <normalized growth>
0.982

$$$$
>  <compound>
CC1(C)C(O)CC(O)C2(C)C1CC(O)C1(C)C2CCC2(C)C(c3ccoc3)OC(=O)C3OC321 (stereo not given)

>  <normalized growth>
0.999

$$$$

---

protocolText: chemical genetic growth profiling, strain panel (AID 1159580);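 note: tested at 20 µM; growth read once vehicle control cultures reached saturation at 30 °C; 1 = growth at the plate median or of vehicle wells; lower values mean less growth of the strain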
particulars: S. cerevisiae deletion strains, growth OD, locus YDL040C, strain nat1, stronger effect = lower value
Among all 5,500 compounds or so, about 2,000 (36%) were called active. Not shown: some 18% with an inconclusive outcome. The list shows a part of the results.
measuredProperty: normalized growth

>  <compound>
CCCCC[C@H](CC(=O)NO)C(=O)N[C@H](C(=O)N1CCC[C@H]1CO)C(C)C

>  <measuredProperty>
normalized growth

>  <valueMeasured>
1.02

$$$$
>  <compound>
C[C@@H]1CC2C3CCC4=CC(=O)C=C[C@]4(C)[C@@]3(F)[C@@H](O)C[C@]2(C)[C@H]1C(=O)CO (some centres not stated)

>  <measuredProperty>
normalized growth

>  <valueMeasured>
0.996

$$$$
>  <compound>
C=C1C2CCC3(C)C(c4ccoc4)OC(=O)CC13OC1CC(OC(C)=O)C(C)(C)C(CC(=O)OC)C12C (configuration not stated)

>  <measuredProperty>
normalized growth

>  <valueMeasured>
1.01

$$$$
>  <compound>
N[C@@H]1[C@@H](O)[C@H](O)[C@@H](CO)O[C@H]1O

>  <measuredProperty>
normalized growth

>  <valueMeasured>
1.01

$$$$
>  <compound>
CC(=O)O[C@H]1C[C@@H](OC(C)=O)C(C)(C)C2CC(=O)[C@]3(C)C(CC[C@@]4(C)[C@H](c5ccoc5)OC(=O)[C@H]5O[C@]543)[C@]21C (some centres not stated)

>  <measuredProperty>
normalized growth

>  <valueMeasured>
0.999

$$$$
>  <compound>
C[C@H](CCC(=O)O)[C@H]1CCC2C3C(CC[C@@]21C)[C@@]1(C)CC[C@@H](O)C[C@H]1C[C@H]3O (some centres not stated)

>  <measuredProperty>
normalized growth

>  <valueMeasured>
1.01

$$$$
>  <compound>
O=c1cc(-c2ccccc2)oc2c(O)c(O)ccc12

>  <measuredProperty>
normalized growth

>  <valueMeasured>
0.992

$$$$
>  <compound>
CC(=O)Nc1ccccc1

>  <measuredProperty>
normalized growth

>  <valueMeasured>
0.97

$$$$
>  <compound>
O=c1cc(-c2ccc(O)cc2)oc2cc(O)cc(O)c12

>  <measuredProperty>
normalized growth

>  <valueMeasured>
0.99

$$$$
>  <compound>
Cc1nc2ccccn2c(=O)c1CCN1CCC(C(=O)c2ccc(F)cc2)CC1

>  <measuredProperty>
normalized growth

>  <valueMeasured>
1

$$$$
>  <compound>
CCCCCC1C(=O)CCC1CC(=O)O (configuration not stated)

>  <measuredProperty>
normalized growth

>  <valueMeasured>
0.995

$$$$
>  <compound>
O=C(Nc1ccccc1)Nc1ccccc1

>  <measuredProperty>
normalized growth

>  <valueMeasured>
0.978

$$$$
>  <compound>
CN(C)N=Nc1nc[nH]c1C(N)=O

>  <measuredProperty>
normalized growth

>  <valueMeasured>
0.979

$$$$
>  <compound>
CN(CCC(N)CC(=O)N[C@H]1C=CC(n2ccc(N)nc2=O)O[C@@H]1C(=O)O)C(=N)N (some centres not stated)

>  <measuredProperty>
normalized growth

>  <valueMeasured>
0.983

$$$$
>  <compound>
COc1c(Cl)ccc(Cl)c1C(=O)O

>  <measuredProperty>
normalized growth

>  <valueMeasured>
0.977

$$$$
>  <compound>
CC(CN(C)C)CN1c2ccccc2CCc2ccccc21 (configuration not stated)

>  <measuredProperty>
normalized growth

>  <valueMeasured>
0.976

$$$$
>  <compound>
C/C=C/C(=O)N(CC)c1ccccc1C

>  <measuredProperty>
normalized growth

>  <valueMeasured>
1

$$$$
>  <compound>
NNCCc1ccccc1

>  <measuredProperty>
normalized growth

>  <valueMeasured>
1

$$$$
>  <compound>
CC1CCC2(OC1)OC1CC3C4CCC5C[C@@H](O)CCC5(C)C4=CCC3(C)C1[C@@H]2C (some centres not stated)

>  <measuredProperty>
normalized growth

>  <valueMeasured>
0.994

$$$$
>  <compound>
CCN(CC)CCOC(=O)C(c1ccccc1)c1ccccc1

>  <measuredProperty>
normalized growth

>  <valueMeasured>
0.972

$$$$
>  <compound>
CCN(CC)C(C)CN1c2ccccc2Sc2ccccc21 (configuration not stated)

>  <measuredProperty>
normalized growth

>  <valueMeasured>
1

$$$$
>  <compound>
C=C1[C@H]2CC[C@@]3(C)[C@H](c4ccoc4)OC(=O)C[C@]13O[C@H]1C[C@H](O)C(C)(C)[C@H](CC(=O)OC)[C@]12C

>  <measuredProperty>
normalized growth

>  <valueMeasured>
1.02

$$$$
>  <compound>
CC(=O)OCC(=O)[C@@]1(O)[C@H](OC(C)=O)CC2C3CCC4=CC(=O)C=C[C@]4(C)[C@@]3(F)[C@@H](O)C[C@@]21C (some centres not stated)

>  <measuredProperty>
normalized growth

>  <valueMeasured>
1

$$$$
>  <compound>
O=[N+]([O-])c1cccc2cn[nH]c12

>  <measuredProperty>
normalized growth

>  <valueMeasured>
1

$$$$
>  <compound>
CCCC(C(=O)OCCN(CC)CC)(c1ccccc1)c1ccccc1

>  <measuredProperty>
normalized growth

>  <valueMeasured>
1.01

$$$$
>  <compound>
COc1cc(C)c(C(=O)Oc2cc(C)c(C(=O)O)c(O)c2C)c(OC)c1C

>  <measuredProperty>
normalized growth

>  <valueMeasured>
0.974

$$$$
>  <compound>
O=[N+]([O-])c1cccc2c(Br)[nH]nc12

>  <measuredProperty>
normalized growth

>  <valueMeasured>
0.99

$$$$
>  <compound>
C=C1C(C2(C)C=CC(=O)C(C)(C)C2CC(=O)OC)CC[C@@]2(C)[C@H](c3ccoc3)OC(=O)C3OC132 (some centres not stated)

>  <measuredProperty>
normalized growth

>  <valueMeasured>
0.992

$$$$
>  <compound>
C=C1C2CC[C@@]3(C)[C@H](c4ccoc4)OC(=O)C[C@]13O[C@H]1CC(O)C(C)(C)C(CC(=O)OC)[C@@]21C (some centres not stated)

>  <measuredProperty>
normalized growth

>  <valueMeasured>
0.982

$$$$
>  <compound>
N[C@H](Cc1ccccc1)C(=O)O

>  <measuredProperty>
normalized growth

>  <valueMeasured>
1

$$$$
>  <compound>
N#C/C(=C\c1cccc(O)c1)C(=O)O

>  <measuredProperty>
normalized growth

>  <valueMeasured>
0.99

$$$$
>  <compound>
O=c1cc(-c2ccccc2)oc2cccc(O)c12

>  <measuredProperty>
normalized growth

>  <valueMeasured>
0.961

$$$$
>  <compound>
CCOC(=O)[C@H](CCc1ccccc1)N[C@@H](C)C(=O)N1Cc2ccccc2C[C@H]1C(=O)O

>  <measuredProperty>
normalized growth

>  <valueMeasured>
1

$$$$
>  <compound>
C=C1C2CC[C@@]3(C)[C@H](c4ccoc4)OC(=O)C[C@]13O[C@H]1CC(=O)C(C)(C)C(CC(=O)OC)[C@@]21C (some centres not stated)

>  <measuredProperty>
normalized growth

>  <valueMeasured>
0.966

$$$$
>  <compound>
C[C@@H](N)[C@@H](O)c1ccccc1

>  <measuredProperty>
normalized growth

>  <valueMeasured>
1

$$$$
>  <compound>
O=c1[nH]cnc2[nH]ncc12

>  <measuredProperty>
normalized growth

>  <valueMeasured>
0.988

$$$$
>  <compound>
C[C@@H]1O[C@@H](O[C@H]2C[C@@H](O)[C@]3(CO)C4C(CC[C@]3(O)C2)[C@@]2(O)CC[C@H](C3=CC(=O)OC3)[C@@]2(C)C[C@H]4O)[C@H](O)[C@H](O)[C@H]1O (some centres not stated)

>  <measuredProperty>
normalized growth

>  <valueMeasured>
1.02

$$$$
>  <compound>
NC(Cc1ccc(F)cc1)C(=O)O (configuration not stated)

>  <measuredProperty>
normalized growth

>  <valueMeasured>
1

$$$$
>  <compound>
N[C@H](Cc1cc(I)c(Oc2ccc(O)c(I)c2)c(I)c1)C(=O)O

>  <measuredProperty>
normalized growth

>  <valueMeasured>
1.01

$$$$
>  <compound>
COc1ccc(C(=O)CC(=O)c2ccc(C(C)(C)C)cc2)cc1

>  <measuredProperty>
normalized growth

>  <valueMeasured>
0.98

$$$$
>  <compound>
C=C[C@H]1CN2CC[C@H]1C[C@@H]2[C@H](O)c1ccnc2ccccc12

>  <measuredProperty>
normalized growth

>  <valueMeasured>
0.983

$$$$
>  <compound>
CCCCS(=N)(=O)CCC(N)C(=O)O (configuration not stated)

>  <measuredProperty>
normalized growth

>  <valueMeasured>
0.994

$$$$
